Let's look at some compounds and their measured TGI.
- Tested on: NCI-H460 lung
- ASSAY INFO: NCI tumour cell line growth inhibition, 48 h

* O=C(Cc1c(C(=O)Nc2ccccc2)sc(C(=O)Nc2ccccc2)c1CC(=O)Nc1ccccc1)Nc1ccccc1 | > 100 µM
* CC12OC(C(=O)C13CC3)C1C(=O)c3cccc(O)c3C(=O)C12 (centres undefined) | 68.3 µM

# evaluate next
For the compound `Fc1cc(C2=Nn3c(nnc3-c3cc(F)c(Cl)cc3Cl)SC2)c(Cl)cc1Cl` , what TGI is on record?
> 100 µM

---

- Test system: RPMI-8226 leukemia
- ASSAY INFO: NCI tumour cell line growth inhibition, 48 h; in the data active means GI50 below about 0.43 µM; inactive means the rest
The reply should be one of these categories: active, inactive

Please review the entries below; each comes with its answer.
• COc1cc2c3c(n(CCCNC(C)(C)CO)c(=O)c2cc1OC)-c1cc2c(cc1C3=O)OCO2 = active
• COc1ccc2c(c1)OC(N)=C(C#N)C2c1ccc(F)c(F)c1 (stereo unspecified) = inactive

Please let me know the test result on file for `N#C/C(=C\c1ccc([N+](=O)[O-])cc1)n1nnc2cc(F)c(F)cc21` .
inactive

Please let me know the test result on file for `Cc1cc(S(=O)(=O)Nc2n[nH]c(-c3ccc(Cl)cc3)c2C#N)c(S)cc1Cl` .
inactive

Please let me know the test result on file for `CC1(C)CC[C@]2(CO)CC[C@]3(C)C(=CC[C@@H]4[C@@]5(C)CC[C@H](NCO)C(C)(C)[C@@H]5CC[C@]43C)[C@@H]2C1` .
inactive

Please let me know the test result on file for `ClCCN(CCCl)c1ccc(OCc2ccccc2)cc1` .
inactive

Please let me know the test result on file for `CC(=O)N[C@@H](Cc1ccc(OP(=O)(O)O)cc1)C(=O)N[C@H]1CCC(=O)N2CCC[C@@H](C(=O)NCc3cccc4ccccc34)N2C1=O` .
inactive

---

Let's look at some compounds and their measured TGI.
- Test system: SK-MEL-2 melanoma
- ASSAY INFO: NCI tumour cell line growth inhibition, 48 h
Reply with just the number (in µM).

Some compounds with recorded TGI:
* CCCCN(CCCC)C1(c2cc3ccccc3s2)CCCCC1 | 34.5
* CC(C)(C)OC(=O)CCC1NC(=O)[C@@H]2Cc3c([nH]c4ccccc34)C(c3ccccc3)N2C1=O (stereo not given in full) | 43.2
* NCCSC1(O)C(=O)c2ccccc2-c2ccccc21 (stereo not given) | 3.47

For the compound `C/C(=N/NC(=S)Nc1ccccc1C)c1ccccn1` , what TGI is on record?
12.8

---

- System: PC-3 prostate
- ASSAY INFO: NCI tumour cell line growth inhibition, 48 h; in the data active = GI50 below about 0.43 µM; inactive = the rest
The reply should be one of these categories: y (active), n (inactive)

• Cc1cccc2c1NC(=O)[C@@H](NC(=O)[C@H](CCC(F)(F)F)[C@H](CCC(F)(F)F)C(N)=O)N=C2c1cccc(F)c1 = n
• COc1ccc2c(c1)OC(N)=C(C#N)C2c1ccc(F)c(F)c1 (stereo not drawn) = n

Please let me know the test result on file for `NNC(=S)N/N=C/c1ccccn1` .
n

Please let me know the test result on file for `COC(=O)Nc1nc2ccc(C(=O)C3CC3)cc2[nH]1` .
y

Please let me know the test result on file for `COc1cc2c3c(n(CCCNC(C)(C)CO)c(=O)c2cc1OC)-c1cc2c(cc1C3=O)OCO2` .
n

Please let me know the test result on file for `O=C(CSc1nc2ccc([N+](=O)[O-])cc2[nH]1)Nc1ccc([N+](=O)[O-])cc1` .
n

Please let me know the test result on file for `COc1ccc(/C=C/C(=O)c2ccc(B(O)O)cc2)cc1O` .
n

Please let me know the test result on file for `N#C/C(=C\c1ccc([N+](=O)[O-])cc1)n1nnc2cc(F)c(F)cc21` .
n

---

- Test system: K-562 leukemia
- ASSAY INFO: NCI tumour cell line growth inhibition, 48 h; in the data active = GI50 below about 0.43 µM; inactive = the rest
The reply should be one of these categories: Y = active, N = inactive

• Fc1ccc(-c2nn3c(COc4ccccc4Cl)nnc3s2)cc1Oc1ccccc1 = N
• Clc1ccc(Nc2ncnc3ccccc23)cc1 = N
• O=C1NC(=N[C@@H]2C[C@H]2c2ccccc2)S/C1=C\c1ccc2ncccc2c1 = N
• O=C1/C(=C\c2ccc(Cl)cc2)CN(C(=O)c2ccccc2)C/C1=C\c1ccc(Cl)cc1 = N
• CCN1C2=C(SC(=S)C1=C1SC(C(=O)c3ccccc3)=C(C(=O)c3ccccc3)S1)SC(=Nc1ccccc1)C2=O = N

Please let me know the test result on file for `COc1cc2cc(Oc3ccc(NC(=O)Nc4ccc(F)c(C(F)(F)F)c4)cc3)c(C)nc2cc1OCCN1CCOCC1` .
N

Please let me know the test result on file for `O=C(/C=C/c1cccnc1)c1ccccc1` .
N

Please let me know the test result on file for `COC(=O)Nc1nc2ccc(C(=O)C3CC3)cc2[nH]1` .
Y

Please let me know the test result on file for `O=C(CSc1nc2ccc([N+](=O)[O-])cc2[nH]1)Nc1ccc([N+](=O)[O-])cc1` .
N

Please let me know the test result on file for `N#C/C(=C\c1ccc([N+](=O)[O-])cc1)n1nnc2cc(F)c(F)cc21` .
N

Please let me know the test result on file for `CCOC(=O)Cc1csc(Nc2nc(O)c(C3=c4ccccc4=NC3=O)s2)n1` .
N

Please let me know the test result on file for Nc1n[nH]c2ccc([C@H]3[C@@H]4C5CCC(C5)[C@@H]4c4c(ccc5[nH]ncc45)N3S(=O)(=O)C3CC3)cc12 (some centres not stated) .
Y

---

- Test system: CAKI-1 renal
- ASSAY INFO: NCI tumour cell line growth inhibition, 48 h
METRIC: TGI

• CCOC(=O)C1C(c2ccccc2)C2(C#N)C(=N)OC1(C)C2(C#N)C#N (stereo unspecified) = 20.3 µM
• Cc1ccc(C2=NN=C3C(c4ccccc4)=Nc4ccccc4N3C2)cc1 = > 100 µM

For the compound `Cc1cc2c(=O)c3ccc(Cl)cc3[nH]c2c(C(=O)O)c1C` , what TGI is on record?
> 100 µM

For the compound `CC[C@H](C)[C@H](NC(=O)[C@H](Cc1ccc(O)cc1)NCC(F)(F)F)C(=O)OC(C)(C)C` , what TGI is on record?
15.7 µM

For the compound Cc1ccc(NC(=O)CC2SC(=Nc3cccc(Cl)c3C)NC2=O)cc1 (stereo unspecified) , what TGI is on record?
> 100 µM

For the compound `Cc1cc(S(=O)(=O)Nc2n[nH]c(-c3ccc(Cl)cc3)c2C#N)c(S)cc1Cl` , what TGI is on record?
> 100 µM

---

- Tested on: NCI-H460 lung
The reply should be one of these categories: active, inactive

* Nc1n[nH]c2ccc([C@H]3[C@@H]4C5CCC(C5)[C@@H]4c4c(ccc5[nH]ncc45)N3S(=O)(=O)C3CC3)cc12 (stereo partly drawn) | active
* Cc1cn2c(/C=N/NC3=NCCN3)c(-c3ccc(Cl)c([N+](=O)[O-])c3)nc2s1 | inactive
* Oc1c(CCl)cc(Cl)cc1Cc1cc(Cl)cc(Cc2cc(Cl)cc(CCl)c2O)c1O | inactive

Please let me know the test result on file for `COC(=O)Nc1nc2ccc(C(=O)C3CC3)cc2[nH]1` .
active

Please let me know the test result on file for `NNC(=S)N/N=C/c1ccccn1` .
inactive

Please let me know the test result on file for Nc1cc2c(c3ccccc13)C(CCl)CN2C(=O)c1cc2cc(NC(=O)c3cc4ccccc4o3)ccc2[nH]1 (stereo not drawn) .
active

Please let me know the test result on file for `Cc1ccc([I+]c2ccc(C)cc2)cc1` .
inactive

Please let me know the test result on file for `CC(C)[C@]12O[C@H]1[C@@H]1O[C@]13[C@]1(O[C@H]1C[C@H]1C4=C(CC[C@@]13C)C(=O)OC4)[C@@H]2OC(=O)OC(C)(C)C` .
active

---

- System: CCRF-CEM leukemia
- ASSAY INFO: NCI tumour cell line growth inhibition, 48 h
Let's look at some molecules and their measured GI50.

Some molecules with recorded GI50:
* NS(=O)(=O)c1ccc(N=Nc2c(O)[nH]c3cccc(CCc4ccncc4)c23)cc1 | > 25 µM
* CCOC(=O)Cc1csc(Nc2nc(O)c(C3=c4ccccc4=NC3=O)s2)n1 | 21.1 µM

For the molecule `N#C/C(=C\c1ccc([N+](=O)[O-])cc1)n1nnc2cc(F)c(F)cc21` , what GI50 is on record?
1.94 µM

For the molecule `CCOC(=O)c1c2c(n(Cc3ccccc3)c1C)-c1nc[nH]c1C(=O)C2=O` , what GI50 is on record?
1.57 µM

For the molecule `COc1ccc(/C=C/C(=O)c2ccc(B(O)O)cc2)cc1O` , what GI50 is on record?
7.23 µM
